- procedure text: self-splicing fitness, log relative to wild type (ln ratio); higher = more splicing; Tetrahymena group I intron in knt gene, E. coli kanamycin selection, DiMSum; sequences stand for … in CUCUCU…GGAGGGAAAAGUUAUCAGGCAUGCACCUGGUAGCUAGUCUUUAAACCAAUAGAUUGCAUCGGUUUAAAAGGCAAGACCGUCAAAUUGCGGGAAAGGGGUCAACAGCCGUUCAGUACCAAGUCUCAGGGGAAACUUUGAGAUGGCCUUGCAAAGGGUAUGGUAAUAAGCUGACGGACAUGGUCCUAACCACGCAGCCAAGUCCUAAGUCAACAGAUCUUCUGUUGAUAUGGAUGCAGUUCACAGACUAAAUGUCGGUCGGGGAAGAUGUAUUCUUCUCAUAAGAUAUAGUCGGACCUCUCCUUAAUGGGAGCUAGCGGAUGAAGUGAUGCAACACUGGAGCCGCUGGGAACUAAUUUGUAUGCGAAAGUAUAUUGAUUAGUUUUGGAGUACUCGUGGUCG;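 note: selection with 25 µg/mL kanamycin versus none on LB agar overnight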
- settings: 30 °C
Record form. Attribute: self-splicing fitness (ln). Fill in for each entry.

The reported value for AAUGAGCAAUAUUACGGGAA in terms of self-splicing fitness (ln) is -2.61

# self-splicing fitness (ln) (sequence: GCGAAGCAAUAUUACGCGUG ) is -1.54

Note to self: self-splicing fitness (ln) recorded for UAUUAGCAAUAUUACGCUUU was -2.01

self-splicing fitness (ln) measured on ACUGAGCAAUAUUACGCGAU = -3.36

Record CUUAAGCAAUAUUACGCUUG , field self-splicing fitness (ln): -4.19

Memo: GUCUAGCAAUAUUACGCUAC , reported self-splicing fitness (ln): -2.41

Lab book: self-splicing fitness (ln) of GUUAAGCAAUAUUACGUACA noted as -1.04

Value of measured self-splicing fitness (ln) for the entry AGACAGCAAUAUUACGUCCA : -0.173

For reference, reported self-splicing fitness (ln) for UGGCAGCAAUAUUACGGCCG stands at -3.49

What the record says about ACCUAGCAAUAUUACGGCAC : self-splicing fitness (ln) is -0.933

Short answer for CUAUAGCAAUAUUACGACCU : self-splicing fitness (ln) was -2.85

GET /value?item= AUAGAGCAAUAUUACGCAAG &field=self-splicing fitness (ln) returns -2.97

For record CUCCAGCAAUAUUACGAGGU the listed self-splicing fitness (ln) is -4.41

GCCUAGCAAUAUUACGAGAG yielded self-splicing fitness (ln) of -3.76

Summary for this sequence, AAUCAGCAAUAUUACGCUCG : self-splicing fitness (ln) is -0.0659

For this sequence ( UGAGAGCAAUAUUACGUAUC ), measured self-splicing fitness (ln) is -0.611

Memo: CCAAAGCAAUAUUACGCAUU , reported self-splicing fitness (ln): -3.34

Entry under test: UAUUAGCAAUAUUACGGAGC . Its self-splicing fitness (ln) was -2.4

Reported self-splicing fitness (ln) ( AGCGAGCAAUAUUACGUGCA ) = -1.78

GET /value?item= UGUGAGCAAUAUUACGACGA &field=self-splicing fitness (ln) returns -0.898

Value of self-splicing fitness (ln) reported for the sequence UGUGAGCAAUAUUACGUUAC is -3.75

AAAUAGCAAUAUUACGAAUU has a reported self-splicing fitness (ln) of -1.65

Consider AAGCAGCAAUAUUACGGAGA . Its measured self-splicing fitness (ln) is -2.7

The reported value for GUAUAGCAAUAUUACGCAAC in terms of self-splicing fitness (ln) is -2.53

Lab note: measured self-splicing fitness (ln) of GGCGAGCAAUAUUACGGUUU was -1.06

response.value for CUCAAGCAAUAUUACGGUCG (field: self-splicing fitness (ln)) = -1.96

self-splicing fitness (ln) reported for this sequence GUGAAGCAAUAUUACGAGGU : -1.83

Summary for this sequence, UGGGAGCAAUAUUACGUGCG : self-splicing fitness (ln) is -1.56

For this sequence ( UCAGAGCAAUAUUACGUUCC ), measured self-splicing fitness (ln) is -3.84

Given item UAGGAGCAAUAUUACGAAAU , the value recorded as its self-splicing fitness (ln) is -2.12

Sample GACAAGCAAUAUUACGGGAG ; self-splicing fitness (ln) observed: -3.18

The value of self-splicing fitness (ln) measured for the sequence CCAUAGCAAUAUUACGUGUC turned out to be -3.89

Consider ACAUAGCAAUAUUACGGAUC . Its measured self-splicing fitness (ln) is -3.05

For CUGAAGCAAUAUUACGGUAC the sequence record lists self-splicing fitness (ln) as -2.82

Lab note: CUGAAGCAAUAUUACGCUCG gave self-splicing fitness (ln) of -0.21

For reference, reported self-splicing fitness (ln) for GUCCAGCAAUAUUACGUCCA stands at -1.12

self-splicing fitness (ln) reading for GGACAGCAAUAUUACGGCAU : -0.228

Value of self-splicing fitness (ln) reported for the sequence CCGUAGCAAUAUUACGACUG is -0.0597

Briefly, self-splicing fitness (ln) measured for UUUAAGCAAUAUUACGAGUG : -1.38

self-splicing fitness (ln) reported for this sequence AUAAAGCAAUAUUACGUAAC : -1.92

response.value for ACACAGCAAUAUUACGGAAU (field: self-splicing fitness (ln)) = -2.58

Briefly, self-splicing fitness (ln) measured for AGAGAGCAAUAUUACGUCUG : -4.03

Entry UUACAGCAAUAUUACGCGAG ; self-splicing fitness (ln) = -1.02

self-splicing fitness (ln) reading for AGUCAGCAAUAUUACGCCGU : -1.26

The sequence GUGAAGCAAUAUUACGUAAA showed self-splicing fitness (ln) equal to -1.41

Form: sequence = AGGUAGCAAUAUUACGAUCC ; self-splicing fitness (ln) = -0.0773

# self-splicing fitness (ln) of ACUCAGCAAUAUUACGAUCA = -0.712

The sequence UUAAAGCAAUAUUACGCCAA showed self-splicing fitness (ln) equal to 0.638

# self-splicing fitness (ln) of UACUAGCAAUAUUACGCUAG = -3.86

Sample CUGGAGCAAUAUUACGGUGA ; self-splicing fitness (ln) observed: -2.75

Value of self-splicing fitness (ln) reported for the sequence GGGCAGCAAUAUUACGCCCU is -2.78

Entry GCCUAGCAAUAUUACGCCGA , self-splicing fitness (ln) reported as -0.66

# sequence GAGGAGCAAUAUUACGAGGU ; its self-splicing fitness (ln) = -2.71

The sequence CUGGAGCAAUAUUACGCGAU showed self-splicing fitness (ln) equal to -2.76

sequence UUUUAGCAAUAUUACGUAAC , self-splicing fitness (ln) observed: -3.07

# self-splicing fitness (ln) (sequence: AGGGAGCAAUAUUACGACUU ) is -1.41

Per the record, AAUGAGCAAUAUUACGUAGU has self-splicing fitness (ln) of -3.83

// self-splicing fitness (ln) value for GCCAAGCAAUAUUACGUCAU : -2.96

For record GAUUAGCAAUAUUACGCGGA the listed self-splicing fitness (ln) is -3.19

For this sequence ( UAAUAGCAAUAUUACGGUGU ), measured self-splicing fitness (ln) is -2.98

So, CCUCAGCAAUAUUACGGCCC ? Its self-splicing fitness (ln) was -4.21

So, AGUAAGCAAUAUUACGUCAC ? Its self-splicing fitness (ln) was -3.26
